- MEASURED TARGET: Endonuclease III-like protein 1 (Homo sapiens) (UniProt P78549);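 also: enzyme assay tracking NTHL1 cutting and release of a quenched double-stranded DNA oligo substrate, read as fluorescence at 594 nm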
- Sequence (P78549 whole entry): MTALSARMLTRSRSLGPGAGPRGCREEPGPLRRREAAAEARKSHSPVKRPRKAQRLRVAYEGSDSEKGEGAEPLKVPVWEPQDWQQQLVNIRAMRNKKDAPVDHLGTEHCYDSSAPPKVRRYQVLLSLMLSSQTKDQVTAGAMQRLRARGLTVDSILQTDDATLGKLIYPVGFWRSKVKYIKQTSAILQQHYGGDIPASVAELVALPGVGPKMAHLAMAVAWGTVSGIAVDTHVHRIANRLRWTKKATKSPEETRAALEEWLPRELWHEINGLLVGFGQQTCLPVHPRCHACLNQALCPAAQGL
- CONDITION PARAMETERS: Compound Concentration 10.0 uM, Hit No
- Description: Inhibition of NTHL1 by quantifying inhibition of NTHL1-mediated cleavage and dissociation of quenched duplex DNA oligonucleotides, measured as fluorescence at 594 nm.
MEASURED METRIC: inhibition (%)
Write the number in % without appending the unit.

Name the recorded inhibition for Cc1nc2ccc(Oc3ccc(F)cc3)cc2c(=O)n1C[C@H]1CCCN(C(C)C)C1 .
-3.56

Name the recorded inhibition for O=C(NCCN1CCOCC1)c1ccc2c(c1)C(=O)c1ccc(Nc3ccc(F)c(NC(=O)c4ccccc4)c3)cc1CC2 .
0.366

Name the recorded inhibition for CN1CCN(c2nc3cc(C(F)(F)F)ccc3n3cccc23)CC1 .
16.2

Name the recorded inhibition for Cc1nn(C)c(C)c1-c1cccc2c1CC[C@H](N(C)C)C2 .
6.32

Name the recorded inhibition for COc1ccc(COc2ccc(Cc3cnc(N)nc3N)cc2OC)cc1 .
-8.98

Name the recorded inhibition for CCCCN1CCC(COC(=O)c2cc(Cl)c(N)c3c2OCCO3)CC1 .
-3.21

Name the recorded inhibition for OC1(c2ccc(Cl)cc2)CCN(Cc2c[nH]c3ccccc23)CC1 .
7.05

Name the recorded inhibition for CN(C(=O)c1cnn2cccnc12)c1cc2c(cc1N1CCOCC1)C(=O)N(C[C@@H](F)C(C)(C)O)C2 .
-9.94

Name the recorded inhibition for Nc1nc2cc(-c3cc(Cl)ccc3Oc3cc(F)c(S(=O)(=O)Nc4ncns4)cc3F)ccc2[nH]1 .
6.35

Name the recorded inhibition for NC(=O)NN=Cc1ccc(Oc2ccc(F)cc2)cc1 .
0.568

---

- MEASURED TARGET: UniProt P78549
- CONDITION PARAMETERS: Compound Concentration 10.0 uM, Hit No
MEASURED METRIC: inhibition

Name the recorded inhibition for CCOc1c2c(c(OCC)c3ncccc13)CN(c1ccc(CS(=O)(=O)NC(=O)Cc3ccccc3OC)cc1C)C2=O .
7.05%

Name the recorded inhibition for Cc1cc([C@@H](C)Nc2ccccc2C(=O)O)c2nc(N3CCOCC3)cc(=O)n2c1 .
-1.31%

Name the recorded inhibition for C[C@@H](c1cccc(CN)c1)n1cc(Cl)cc(C(N)=O)c1=N .
-5.89%

Name the recorded inhibition for Cn1cc(-n2cnc3c(NCc4nc5cc(Cl)c(Cl)cc5[nH]4)nc(N4CCOCC4)nc32)cn1 .
-7.58%

Name the recorded inhibition for O=C1N/C(=N/c2ccccc2F)S/C1=C\c1ccc(C(=O)O)cc1 .
17.3%

Name the recorded inhibition for CC(C)c1noc(N2CCC(COc3ccc(-c4ccc(S(C)(=O)=O)cc4)nc3)CC2)n1 .
-6.14%

Name the recorded inhibition for CCN(CC)CCCCC1CCN(CC(=O)N2c3ccccc3C(=O)Nc3cccnc32)CC1 .
12.2%

Name the recorded inhibition for CCCOc1ccc2[nH]cc(C3=CCNCC3)c2n1 .
7.17%

Name the recorded inhibition for CC(/C=C1\SC(=S)N(CCCC(=O)Nc2ccc(C(=O)O)c(O)c2)C1=O)=C\c1ccccc1 .
0.0916%

Name the recorded inhibition for O=C(N[C@@H]1C2CCN(CC2)[C@H]1Cc1cccnc1)c1cc2ccccc2o1 .
27.8%

---

- MEASURED TARGET: DNA-3-methyladenine glycosylase (Homo sapiens)
- CONDITION PARAMETERS: Compound Concentration 10.0 uM, Hit No
- Description: Inhibition of MPG by quantifying inhibition of MPG-mediated cleavage and dissociation of quenched duplex DNA oligonucleotides, measured as fluorescence at 594 nm. To generate a functional strand incision and increase turn-over this assay is coupled to APE1.
Assignment: determine reported inhibition for the given molecules.
Write the number in % without appending the unit.

// fetch DNA-3-methyladenine glycosylase (Homo sapiens) inhibition for N#Cc1c(O)nc(SCc2cccc(F)c2F)nc1C1CC1
5.35

// fetch DNA-3-methyladenine glycosylase (Homo sapiens) inhibition for Cc1ccccc1-c1cc(N2CCN(C)CC2)ncc1N(C)C(=O)C(C)(C)c1cc(C(F)(F)F)cc(C(F)(F)F)c1
-7.15

// fetch DNA-3-methyladenine glycosylase (Homo sapiens) inhibition for CCOc1ccc(S(=O)(=O)Nc2ccc(Cl)cc2C#Cc2cnc(C(=O)O)cc2OC)c2ncccc12
14.2

// fetch DNA-3-methyladenine glycosylase (Homo sapiens) inhibition for Cc1cc(-c2nncc3c(C(C)(C)C)c(OCc4ncnn4C)nn23)no1
-9.01

// fetch DNA-3-methyladenine glycosylase (Homo sapiens) inhibition for O=C(O)Cn1c(C(=O)Nc2nc(-c3ccccc3Cl)cs2)cc2ccccc21
17.4
